tested on: 5-HT3A receptor S163T (Homo sapiens, UniProt P46098, S158T)
Sequence (P46098 24-478 S158T): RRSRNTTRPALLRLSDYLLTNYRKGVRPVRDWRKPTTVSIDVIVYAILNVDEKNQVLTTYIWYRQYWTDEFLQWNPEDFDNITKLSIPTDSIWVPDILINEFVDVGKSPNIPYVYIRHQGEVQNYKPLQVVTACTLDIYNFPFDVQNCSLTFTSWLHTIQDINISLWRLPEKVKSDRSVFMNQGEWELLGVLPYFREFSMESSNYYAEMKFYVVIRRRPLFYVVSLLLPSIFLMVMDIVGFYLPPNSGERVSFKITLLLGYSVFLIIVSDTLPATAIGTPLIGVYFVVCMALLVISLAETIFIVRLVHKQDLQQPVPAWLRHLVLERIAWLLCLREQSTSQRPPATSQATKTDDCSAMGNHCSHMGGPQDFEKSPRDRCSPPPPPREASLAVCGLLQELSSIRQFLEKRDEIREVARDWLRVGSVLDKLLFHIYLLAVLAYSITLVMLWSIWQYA
assay text: radioligand saturation binding, transfected HEK293 membranes
recorded conditions: [3H]-palonosetron saturation, 5-HT3A S163T, 4 °C, 24 h
endpoint: pKd
Keep it numeric: pKd is minus log10 of the concentration in mol/L.

Reported pKd for O=C1c2cccc3c2[C@H](CCC3)CN1[C@@H]1CN2CCC1CC2 was 9.66

----------
tested on: 5-HT3A receptor Y73S (Homo sapiens, UniProt P46098, Y68S)
Sequence (P46098 24-478 Y68S): as the sequence (P46098 24-478 S158T) above, with Y45S, T135S counted along it
assay text: radioligand saturation binding, transfected HEK293 membranes
recorded conditions: [3H]-palonosetron saturation, 5-HT3A Y73S, 4 °C, 24 h
endpoint: pKd
Keep it numeric: pKd is minus log10 of the concentration in mol/L.

Reported pKd for O=C1c2cccc3c2[C@H](CCC3)CN1[C@@H]1CN2CCC1CC2 was 9.21

----------
tested on: 5-HT3A receptor Y73S (Homo sapiens, UniProt P46098, Y68S)
assay text: FlexStation membrane potential dye functional assay, HEK293 cells
recorded conditions: inhibition of 5-HT (EC50 concentration) response, 45 min preincubation, 5-HT3A Y73S
endpoint: IC50 (nM)
The figure you give is taken to be in nM; do not add the unit.

Reported IC50 for O=C1c2cccc3c2[C@H](CCC3)CN1[C@@H]1CN2CCC1CC2 [Palonosetron] was 3.64

----------
tested on: 5-HT3A receptor F130A (Homo sapiens, UniProt P46098, F125A)
Sequence (P46098 24-478 F125A): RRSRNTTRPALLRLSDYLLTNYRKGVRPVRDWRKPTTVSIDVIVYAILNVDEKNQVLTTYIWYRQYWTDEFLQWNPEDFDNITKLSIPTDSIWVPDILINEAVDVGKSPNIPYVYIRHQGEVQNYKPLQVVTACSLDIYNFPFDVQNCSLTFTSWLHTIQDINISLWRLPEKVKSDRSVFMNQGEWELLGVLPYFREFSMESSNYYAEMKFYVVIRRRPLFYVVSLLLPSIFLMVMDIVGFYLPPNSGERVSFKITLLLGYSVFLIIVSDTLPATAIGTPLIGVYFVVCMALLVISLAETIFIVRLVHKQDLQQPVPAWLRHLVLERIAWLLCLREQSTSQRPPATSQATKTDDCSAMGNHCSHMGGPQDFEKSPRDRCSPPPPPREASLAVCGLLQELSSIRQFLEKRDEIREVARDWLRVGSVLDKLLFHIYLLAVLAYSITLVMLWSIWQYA
assay text: radioligand saturation binding, transfected HEK293 membranes
recorded conditions: [3H]-palonosetron saturation, 5-HT3A F130A, 4 °C, 24 h
endpoint: pKd
Keep it numeric: pKd is minus log10 of the concentration in mol/L.

Reported pKd for O=C1c2cccc3c2[C@H](CCC3)CN1[C@@H]1CN2CCC1CC2 [Palonosetron] was 9.17

----------
tested on: 5-HT3A receptor Y73A (Homo sapiens, UniProt P46098, Y68A)
Sequence (P46098 24-478 Y68A): as the sequence (P46098 24-478 F125A) above, with Y45A, A102F counted along it
assay text: radioligand saturation binding, transfected HEK293 membranes
recorded conditions: [3H]-palonosetron saturation, 5-HT3A Y73A, 4 °C, 24 h
endpoint: pKd
Keep it numeric: pKd is minus log10 of the concentration in mol/L.

Reported pKd for O=C1c2cccc3c2[C@H](CCC3)CN1[C@@H]1CN2CCC1CC2 [Palonosetron] was 9.06

----------
tested on: 5-HT3A receptor S163T (Homo sapiens, UniProt P46098, S158T)
assay text: FlexStation membrane potential dye functional assay, HEK293 cells
recorded conditions: inhibition of 5-HT (EC50 concentration) response, 45 min preincubation, 5-HT3A S163T
endpoint: pIC50
Keep it numeric: pIC50 is minus log10 of the concentration in mol/L.

Reported pIC50 for O=C1c2cccc3c2[C@H](CCC3)CN1[C@@H]1CN2CCC1CC2 [Palonosetron] was 8.99
